Sourced from patent US20240409663A1

molecular target: T1, human GPC3-his tag protein (human, UniProt P51654 25-559, limits assumed); assay: SPR Biacore 8K, mAb captured, affinity ranking
T1 construct: recombinant soluble antigen used as analyte in all Biacore runs; also called recombinant GPC3 protein; rhGPC3-His; not shown: His tag
Reported values of pKd for individual entries
Scale for pKd: -log10 of concentration given in mol/L; no unit attached.

Suppose we examine the binder 52H5D3B8-6#-VH3+VL4 (antibody, V domains shown, humanized) VH: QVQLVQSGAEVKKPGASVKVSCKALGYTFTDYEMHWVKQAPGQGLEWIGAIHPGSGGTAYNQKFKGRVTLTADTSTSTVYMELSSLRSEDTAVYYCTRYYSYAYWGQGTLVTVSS VL: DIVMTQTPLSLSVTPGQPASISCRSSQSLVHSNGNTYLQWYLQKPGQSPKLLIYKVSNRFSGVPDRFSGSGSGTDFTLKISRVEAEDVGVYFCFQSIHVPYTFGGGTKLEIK ; what pKd value has been reported? 9.14

Recorded pKd of 52H5D3B8-6#-VH2+VL3 (antibody, V domains shown, humanized) VH: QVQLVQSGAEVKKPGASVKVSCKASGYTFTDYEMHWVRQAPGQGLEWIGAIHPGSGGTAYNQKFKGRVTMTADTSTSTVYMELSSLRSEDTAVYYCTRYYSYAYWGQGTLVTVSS VL: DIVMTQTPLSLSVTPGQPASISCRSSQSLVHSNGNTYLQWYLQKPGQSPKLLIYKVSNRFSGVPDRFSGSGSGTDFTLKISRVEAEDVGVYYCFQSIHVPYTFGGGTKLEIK , please. 9.02
